# TARGET OR TEST SYSTEM: Avi-KRAS WT (1-169) GppNHp/RAF1 RBD-3xFLAG (52-151) (Homo sapiens)
# Construct: Avi-KRAS WT (1-169)
# Sequence (P01116 1-169 isoform P01116-2): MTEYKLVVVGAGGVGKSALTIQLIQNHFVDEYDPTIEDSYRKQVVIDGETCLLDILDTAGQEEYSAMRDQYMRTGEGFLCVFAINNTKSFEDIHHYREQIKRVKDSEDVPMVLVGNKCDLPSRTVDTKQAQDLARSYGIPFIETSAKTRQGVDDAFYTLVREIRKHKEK
# ASSAY NOTES: Raf1-KRAS WT-GppNHP disruption HTRF assay (Biological Example 1)
# Format: binding
# EXPERIMENTAL PARAMETERS: KRAS WT, GppNHp-loaded; Table 11
pIC50: −log10 of the molar value.
Each entry below lists one item and its recorded pIC50 value.

Data request, read-out pIC50, for N#Cc1c(N)sc2c(F)ccc(-c3c(C(F)(F)F)cc4c(N5CC6CC(C5)O6)nc(OC[C@@]56CCCN5C[C@H](F)C6)nc4c3F)c12 (single isomer, unassigned) [Compound 275]
6.00 to 7.00

May I ask what pIC50 has been recorded for N#Cc1c(N)sc2c(F)ccc(-c3c(C(F)(F)F)cc4c(N5C[C@H]6C[C@@H]5CO6)nc(OC[C@@]56CCCN5C[C@H](F)C6)nc4c3F)c12 [Compound 253] ?
6.00 to 7.00

Form field: reported pIC50 of CN(C)C(=O)CN(C)c1nc(OC[C@@]23CCCN2C[C@H](F)C3)nc2c(F)c(-c3ccc(F)c4sc(N)c(C#N)c34)c(C(F)(F)F)cc12 [Compound 208]
6.00 to 7.00

Bench note: what pIC50 did CCN(CCO)c1nc(OC[C@@H]2C[C@@H](OC)CN2C)nc2c(F)c(-c3ccc(F)c4sc(N)c(C#N)c34)c(C(F)(F)F)cc12 [Compound 178] show?
5.00 to 6.00

Fill in: pIC50 of CC(=O)N1CC[C@@H](N(C)c2nc(OC[C@@]34CCCN3C[C@H](F)C4)nc3c(F)c(-c4ccc(F)c5sc(N)c(C#N)c45)c(C(F)(F)F)cc23)[C@H]1C (single isomer, unassigned) [Compound 193] is ___
> 7.00

Give its pIC50 value. Item: Nc1nc2c(-c3c(C(F)(F)F)cc4c(N5CCC(O)CC5)nc(OCC56CCCN5CCC6)nc4c3F)ccc(F)c2s1 [Compound 51]
5.00 to 6.00

// query pIC50 value for entry CN(c1nc(OC[C@@]23CCCN2C[C@H](F)C3)nc2c(F)c(-c3ccc(F)c4sc(N)c(C#N)c34)c(C(F)(F)F)cc12)[C@H]1C[C@H](O)C1 [Compound 23]
6.00 to 7.00

// query pIC50 value for entry Nc1nc2c(-c3c(C(F)(F)F)cc4c(N[C@H]5CCC[C@@H](O)C5)nc(OCC56CCCN5CCC6)nc4c3F)ccc(F)c2s1 (atropisomer, axis not shown) [Compound 67]
5.00 to 6.00

Can you look up the measured pIC50 of CN(c1nc(OC[C@@]23CCCN2C[C@H](F)C3)nc2c(F)c(-c3ccc(F)c4sc(N)c(C#N)c34)c(C(F)(F)F)cc12)C1(CO)CC1 [Compound 170] for me?
6.00 to 7.00

Value lookup for pIC50; key = CN(c1nc(OC[C@@]23CCCN2C[C@H](F)C3)nc2c(F)c(-c3ccc(F)c4sc(N)c(C#N)c34)c(C(F)(F)F)cc12)[C@@H]1CCC[C@H]1CO [Compound 87]
< 5.00

Given CN(c1nc(OC[C@@]23CCCN2C[C@H](F)C3)nc2c(F)c(-c3ccc(F)c4sc(N)c(C#N)c34)c(C(F)(F)F)cc12)C1CCC(O)CC1 (some centres unmarked) [Compound 66] , state its recorded pIC50.
6.00 to 7.00

I have this compound here, CCC(=O)N1C2CCC1CN(c1nc(OC[C@@]34CCCN3C[C@H](F)C4)nc3c(F)c(-c4ccc(F)c5sc(N)nc45)c(C(F)(F)F)cc13)C2 [Compound 97] , and I need its recorded pIC50.
< 5.00

What does the data say about its pIC50? Entry: CO[C@@H]1C[C@@H](COc2nc(N(C)C3CC(O)C3)c3cc(C(F)(F)F)c(-c4ccc(F)c5sc(N)c(C#N)c45)c(F)c3n2)N(C)C1 (some centres unmarked) [Compound 40]
6.00 to 7.00

Please give the measured pIC50 for this compound: CCC(=O)N1C[C@H](C)N(c2nc(OC[C@@]34CCCN3C[C@H](F)C4)nc3c(F)c(-c4ccc(F)c5sc(N)c(C#N)c45)c(C(F)(F)F)cc23)C[C@H]1C (atropisomer, axis not shown) [Compound 99]
5.00 to 6.00

These data points were gathered from patent US20260042764A1.
